- METHOD NOTES: In vitro stability in 50% v/v mouse plasma
- Type: in vitro ADME
- CONDITION CONTEXT: 50% v/v CD-1 mouse plasma (K3 EDTA) in PBS; 120 μL of 5 mM DMSO stock in 1080 μL; 37°C, 100 rpm; 0-1440 min; HPLC-UV 220 nm; one phase decay, least square fit; n = 3
- Method: CD-1 male mice (7 weeks old: Charles River Laboratories) were sacrificed with CO2, and blood was collected in K3E EDTA spray-coated vacutainers and kept on ice prior to centrifugation at 3000 rpm for 15 min at 4°C (Heraeus Multifuge 3sf). Mouse plasma samples were stored at −80°C before use in stability studies. Study was approved by the University of Portsmouth Animal Welfare and Ethical Review Body (UoP AWERB body, 817). […]
Residues, ends and D or L forms follow the SMILES beside them.
MEASUREMENT KIND: k
Note: state the figure and append the unit.

* CCCCCCCCCCCC(=O)N[C@@H](CCC(N)=O)C(=O)N[C@@H](Cc1c[nH]cn1)C(=O)N[C@@H](CO)C(=O)N[C@@H](CCC(N)=O)C(=O)N[C@H](C(=O)N[C@H](C(=O)N[C@@H](CCCCN)C(=O)N[C@H](C(=O)O)C(C)C)[C@@H](C)O)[C@@H](C)CC [Mouse Lau-PTEN-PDZ] (HELM PEPTIDE1{[CCCCCCCCCCCC(=O)[*:2]].Q.H.S.Q.I.T.K.V}$$$$V2.0) | 0.12 h⁻¹
* CCCCCCCCCCCCCC(=O)N[C@@H](CCC(N)=O)C(=O)N[C@@H](Cc1c[nH]cn1)C(=O)N[C@@H](CO)C(=O)N[C@@H](CCC(N)=O)C(=O)N[C@H](C(=O)N[C@H](C(=O)N[C@@H](CCCCN)C(=O)N[C@H](C(=O)O)C(C)C)[C@@H](C)O)[C@@H](C)CC [Mouse Myr-PTEN-PDZ] (HELM PEPTIDE1{[CCCCCCCCCCCCCC(=O)[*:2]].Q.H.S.Q.I.T.K.V}$$$$V2.0) | 0.80 h⁻¹
* CCCCCCCCCCCC(=O)N[C@@H](CCC(N)=O)C(=O)N[C@@H](Cc1c[nH]cn1)C(=O)N[C@H](C(=O)N[C@@H](CCC(N)=O)C(=O)N[C@H](C(=O)N[C@H](C(=O)N[C@@H](CCCCN)C(=O)N[C@H](C(=O)O)C(C)C)[C@@H](C)O)[C@@H](C)CC)[C@@H](C)O [Human Lau-PTEN-PDZ] (HELM PEPTIDE1{[CCCCCCCCCCCC(=O)[*:2]].Q.H.T.Q.I.T.K.V}$$$$V2.0) | 4.60 h⁻¹

API: the following record is the query input.
Need k of CCCCCCCCCCCCCC(=O)N[C@@H](CCC(N)=O)C(=O)N[C@@H](Cc1c[nH]cn1)C(=O)N[C@H](C(=O)N[C@@H](CCC(N)=O)C(=O)N[C@H](C(=O)N[C@H](C(=O)N[C@@H](CCCCN)C(=O)N[C@H](C(=O)O)C(C)C)[C@@H](C)O)[C@@H](C)CC)[C@@H](C)O [Human Myr-PTEN-PDZ] (HELM PEPTIDE1{[CCCCCCCCCCCCCC(=O)[*:2]].Q.H.T.Q.I.T.K.V}$$$$V2.0) , thanks.
6.17 h⁻¹
